Readings of growth rescue for the listed molecules
- Assay: restored growth of temperature-sensitive Mot1-301 yeast – S. cerevisiae, ATP luminescence, 38.5C, SUMOylation pathway inhibitor project, primary screen (AID 2716);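 note: OY570 slx delta 5 strain wells were the positive control but not used for scaling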
- Protocol conditions: S. cerevisiae Mot1-301 growth rescue, at 18.8 µM, hits give high values, percent above DMSO median, 100 means doubled
Screen size: about 320,000 compounds; about 3,300 (1%) were called active. The sample as a whole holds a higher share of actives than the screen did.
Give a bare numeral; the unit % is implied.

Examples with answers:
Cc1cc(C)cc(NC(=O)C2CCCN(S(=O)(=O)c3ccc4[nH]c(=O)ccc4c3)C2)c1 (configuration not stated) = 2800
Cc1ccc(-n2c(SCC(=O)Nc3ccc4c(c3)OCO4)nnc2-c2ccccn2)cc1 = -3.71
Cc1sc2ncnc(Sc3nc4ccccc4s3)c2c1C = 512
CSc1ncnc2sc(C)c(C)c12 = -17.7

# input Entry "O=C1CCC/C(=N\NC(=O)NC2CCCCC2)C1" has what growth rescue?
# output -14.5

# input Proceed to "COC(=O)c1c(-c2cccs2)csc1NC(=O)CSc1ncnc2sc(C)c(C)c12"
# output -4.24

# input Proceed to "Cc1cccc(N(CC(=O)Nc2ccc(-c3nc4ccc(C)cc4s3)cc2)S(C)(=O)=O)c1"
# output -4.14

# input Proceed to C/C(CC(O)(/C=N/O)c1ccccc1)=N\O (configuration not stated)
# output 0.714

# input Proceed to "Cc1ccc(-n2c(SCC(=O)Nc3ccc4c(c3)OCO4)nnc2-c2ccoc2C)cc1"
# output -1.21

# input Proceed to Cc1ccc(C(c2sc3nc(C)nn3c2O)N2CCN(c3ccccc3)CC2)cc1 (configuration not stated)
# output 6.75

# input Proceed to COc1cccc(CC(=O)N2CCCC(CCC(=O)N3CCN(c4ccccn4)CC3)C2)c1 (configuration not stated)
# output 15

# input Proceed to Cc1nc2sc(C(c3ccco3)N3CCOCC3)c(O)n2n1 (configuration not stated)
# output 853

# input Proceed to "COc1cc(NC(=O)CN(C)S(=O)(=O)c2ccc3nc(C)sc3c2)cc(OC)c1"
# output -12.8

# input Proceed to "CC1CCN(S(=O)(=O)c2ccc3[nH]c(=O)ccc3c2)CC1"
# output 14.3

# input Proceed to "CC1CCN(S(=O)(=O)c2ccc3ncn(CC(=O)N(C)C4CCCCC4)c(=O)c3c2)CC1"
# output -3.24

# input Proceed to "O=c1[nH]n2c(=O)c3c([nH]c2c1N=Nc1ccccc1)CCC3"
# output -13.5

# input Proceed to "O=C(CSc1nnc(-c2ccccn2)n1-c1ccccc1)Nc1ccc2c(c1)OCO2"
# output 354

====

- Assay: restored growth of temperature-sensitive Mot1-301 yeast – S. cerevisiae, ATP luminescence, 38.5C, SUMOylation pathway inhibitor project, primary screen (AID 2716);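 note: OY570 slx delta 5 strain wells were the positive control but not used for scaling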
- Protocol conditions: S. cerevisiae Mot1-301 growth rescue, at 18.8 µM, percent above DMSO median, 100 means doubled
Hit rate of the full screen: of about 320,000 compounds, about 3,300 (1%) were called active.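 The calls were made as follows: active = every valid replicate shows activation above 250% relative to neutral control wells; inactive = the rest, any valid replicate at or below 250%.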 This excerpt belongs to a sample that is enriched for actives.
Respond using exactly one of the listed classes: active, inactive

// below: answered compounds
CN(C)CCCN(Cc1cc2cc3c(cc2[nH]c1=O)OCCO3)C(=O)NC1CCCCC1 = inactive
Cc1ccccc1N1CCN(CC(=O)NCc2ccc(Cl)cc2)CC1 = inactive
CCc1ccccc1S(=O)(=O)Cc1ccc(C(=O)NCCc2ccccc2)o1 = inactive

# input Name the outcome recorded for Cc1cccc(C)c1NC(=O)N1CC(C)OC(C)C1 (stereo unspecified) in the assay.
# output inactive

# input Proceed to "COc1ccc(/C=C(\C#N)C(=O)NCCCn2ccnc2)cc1"
# output active

# input Proceed to "COC(=O)c1scc(C)c1NC(=O)CSc1ccc(Cl)cc1"
# output inactive

====

Readings of growth rescue for the listed compounds
- Assay: restored growth of temperature-sensitive Mot1-301 yeast – S. cerevisiae, ATP luminescence, 38.5C, SUMOylation pathway inhibitor project, primary screen (AID 2716);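 note: OY570 slx delta 5 strain wells were the positive control but not used for scaling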
- Protocol conditions: S. cerevisiae Mot1-301 growth rescue, at 18.8 µM, hits give high values, percent above DMSO median, 100 means doubled
Hit rate of the full screen: of about 320,000 compounds, about 3,300 (1%) were called active. Only a selection was taken, and actives are over-represented in it overall.
Give a bare numeral; the unit % is implied.

Examples with answers:
Cc1ccc(CNC(=O)C(=O)c2cn(CC(=O)N3CCOCC3)c3ccccc23)cc1 = 279
CN(CC(=O)NCc1cccnc1)S(=O)(=O)c1cc(Cl)ccc1Cl = 249
NC(N)=NCCCc1cn(CC(=O)N2CCNCC2)nn1 = 3.99

Attention now shifts to the item below.
# input Entry "N#CCCN1CCN(S(=O)(=O)c2ccc(S(=O)(=O)NC3CCCCC3)cc2)CC1" has what growth rescue?
# output 111

====

- Assay: restored growth of temperature-sensitive Mot1-301 yeast – S. cerevisiae, ATP luminescence, 38.5C, SUMOylation pathway inhibitor project, primary screen (AID 2716);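 note: OY570 slx delta 5 strain wells were the positive control but not used for scaling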
- Protocol conditions: S. cerevisiae Mot1-301 growth rescue, at 18.8 µM, percent above DMSO median, 100 means doubled
About 3,300 (1%) of roughly 320,000 compounds were called active.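 Rule for the calls: active = every valid replicate shows activation above 250% relative to neutral control wells; inactive = the rest, any valid replicate at or below 250%.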 The list comes from a sample in which actives are over-represented; it also holds close analogues and randomly drawn compounds.
Respond using exactly one of the listed classes: YES = active, NO = inactive

// below: answered compounds
N#Cc1c(-c2ccccc2)nc(SCc2ccc([N+](=O)[O-])cc2)[nH]c1=O = NO
Cc1cccc2c1N(CCOc1ccccc1)C(=O)C2=O = NO
CCOC(=O)CCc1c(C)c(C#N)c2[nH]c3ccccc3n2c1=O = NO
CC(C)CC(=O)Nc1nnc(S(=O)(=O)N(C)c2ccc(Cl)cc2)s1 = NO
O=C(COC(=O)c1ccc(F)cc1)NCCCc1ccccc1 = NO
Cc1nn(CCOc2ccccc2)c(=O)n1-c1ccccc1F = YES
Cc1c(C(N)=O)sc2ncn(CCOc3ccccc3)c(=O)c12 = NO
CC(C)Oc1ccc(Oc2ccc(C(F)(F)F)cn2)cc1 = NO

# input Name the outcome recorded for "O=C(O)CCCC(=O)Nc1ccc(Oc2cccc(C(F)(F)F)c2)nc1" in the assay.
# output NO

# input Proceed to "O=Cc1ccc(Oc2cccc(C(F)(F)F)c2)nc1"
# output YES

# input Proceed to "COc1ccccc1CSc1ncc(-c2ccc([N+](=O)[O-])cc2)[nH]1"
# output YES

====

- Assay: restored growth of temperature-sensitive Mot1-301 yeast – S. cerevisiae, ATP luminescence, 38.5C, SUMOylation pathway inhibitor project, primary screen (AID 2716);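 note: OY570 slx delta 5 strain wells were the positive control but not used for scaling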
- Protocol conditions: S. cerevisiae Mot1-301 growth rescue, at 18.8 µM, percent above DMSO median, 100 means doubled
About 3,300 (1%) of roughly 320,000 compounds were called active.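 The calls were made as follows: active = every valid replicate shows activation above 250% relative to neutral control wells; inactive = the rest, any valid replicate at or below 250%.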 The sample holds actives, similar compounds and a random draw of the others, so the mix is not that of the screen.
Respond using exactly one of the listed classes: 1.0 = active, 0.0 = inactive

// below: answered molecules
CCCNC(=O)CCn1cc(-c2ccc(OC)cc2)nc1CCN = 0.0
O=C(c1c(F)cccc1F)N1CCN(S(=O)(=O)c2ccc3c(c2)OCCO3)CC1 = 0.0
COC(=O)c1cc(NC2c3ccccc3C(=O)N2c2ccc(Cl)cn2)cc(C(=O)OC)c1 (stereo not given) = 0.0
COc1ccc(OC)c(CNC(=O)c2cc(=O)[nH]c3ccc(S(=O)(=O)N4CCCC4)cc23)c1 = 0.0

# input Name the outcome recorded for "CN(CCO)c1ccc(/C=N/Nc2nncc3ccccc23)cc1" in the assay.
# output 0.0

# input Proceed to CCCCN(C1CCS(=O)(=O)C1)S(=O)(=O)c1ccc(C(C)C)cc1 (stereo not given)
# output 0.0

# input Proceed to CCC(C)(C)NC(=O)C(c1cccc(OC)c1OC)N(CC(C)C)C(=O)CCC(=O)Nc1cc(C)on1 (stereo not given)
# output 0.0

====

- Assay: restored growth of temperature-sensitive Mot1-301 yeast – S. cerevisiae, ATP luminescence, 38.5C, SUMOylation pathway inhibitor project, primary screen (AID 2716);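 note: OY570 slx delta 5 strain wells were the positive control but not used for scaling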
- Protocol conditions: S. cerevisiae Mot1-301 growth rescue, at 18.8 µM, percent above DMSO median, 100 means doubled
Among all 320,000 compounds or so, about 3,300 (1%) were called active.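 Rule for the calls: active = every valid replicate shows activation above 250% relative to neutral control wells; inactive = the rest, any valid replicate at or below 250%.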 Only a selection was taken, and actives are over-represented in it overall.
Respond using exactly one of the listed classes: active, inactive

O=C(CCNC(=O)c1ccc(Cl)cc1)NC1CCCc2ccccc21 (stereo not drawn) = inactive
Cc1ccc(OCCC(=O)Nc2ccc(S(=O)(=O)Nc3nccs3)cc2)cc1 = inactive

# input Name the outcome recorded for "Nc1nc(COC(=O)CCC(=O)c2ccc(Cl)cc2)nc(Nc2ccccc2)n1" in the assay.
# output inactive

# input Proceed to "CCOC(=O)c1cc(-c2ccccc2C)n(Cc2cc(C)no2)n1"
# output inactive

# input Proceed to "O=C(COc1ccccc1[N+](=O)[O-])NC1CC1"
# output inactive

# input Proceed to "Cc1nnc(SCc2cc(=O)[nH]c(N3CCN(Cc4ccccc4)CC3)n2)s1"
# output inactive

# input Proceed to "Cc1ccc(CN2CCCOCCS2(=O)=O)cc1"
# output inactive

# input Proceed to "COc1ccc(/C=N/NC(=O)Cn2cc(C(F)(F)F)ccc2=O)cc1"
# output inactive
